- testProtocol: Plasma and CSF distribution of MGS0008 in rats
- Type: in vivo
- runConditions: Wistar, rat, plasma; fasted male rats; MGS0008 oral 3 mg/kg; 6 h; read-out: Plasma concentration
propertyName: concentration at 6 h (ng/mL)
Entry rule: numbers only, all in ng/mL.

Exercise: Entry N[C@]1(C(=O)O)[C@H]2[C@@H](C[C@@H]1F)[C@@H]2C(=O)O [MGS0008] has what concentration at 6 h?
Solution: 6.23

----------
- assaySystem: CYP3A (Homo sapiens, UniProt P08684)
- Sequence (P08684 2-503): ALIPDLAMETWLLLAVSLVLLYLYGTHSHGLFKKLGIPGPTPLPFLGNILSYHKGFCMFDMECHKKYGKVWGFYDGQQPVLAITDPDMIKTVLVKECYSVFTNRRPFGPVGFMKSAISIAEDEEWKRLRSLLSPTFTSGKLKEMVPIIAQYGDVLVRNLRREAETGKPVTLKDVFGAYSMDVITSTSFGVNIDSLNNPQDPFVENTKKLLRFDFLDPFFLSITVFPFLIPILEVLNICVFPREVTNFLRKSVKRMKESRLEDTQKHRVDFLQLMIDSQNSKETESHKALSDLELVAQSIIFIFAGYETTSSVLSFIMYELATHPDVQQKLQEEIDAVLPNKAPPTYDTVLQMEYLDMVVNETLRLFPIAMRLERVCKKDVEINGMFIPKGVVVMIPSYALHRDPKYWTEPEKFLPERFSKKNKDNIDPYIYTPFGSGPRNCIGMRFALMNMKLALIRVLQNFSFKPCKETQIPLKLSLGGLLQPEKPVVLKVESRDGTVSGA
- testProtocol: CYP inhibition in human liver microsomes, CYP3A
- Type: in vitro ADME
- runConditions: probe testosterone (6β-hydroxytestosterone formation), human liver microsomes 0.1 mg/mL, metabolite 6β-Hydroxytestosterone
pIC50: −log10 of the molar value.
propertyName: pIC50

Exercise: API: value(readout=pIC50, system=CYP3A (Homo sapiens, UniProt P08684)) for record N[C@]1(C(=O)O)[C@H]2[C@@H](C[C@@H]1F)[C@@H]2C(=O)O [MGS0008]
Solution: < 4.00
